# Study target: human TLR7 (Homo sapiens, UniProt Q9NYK1)
# Sequence (Q9NYK1 27-1049): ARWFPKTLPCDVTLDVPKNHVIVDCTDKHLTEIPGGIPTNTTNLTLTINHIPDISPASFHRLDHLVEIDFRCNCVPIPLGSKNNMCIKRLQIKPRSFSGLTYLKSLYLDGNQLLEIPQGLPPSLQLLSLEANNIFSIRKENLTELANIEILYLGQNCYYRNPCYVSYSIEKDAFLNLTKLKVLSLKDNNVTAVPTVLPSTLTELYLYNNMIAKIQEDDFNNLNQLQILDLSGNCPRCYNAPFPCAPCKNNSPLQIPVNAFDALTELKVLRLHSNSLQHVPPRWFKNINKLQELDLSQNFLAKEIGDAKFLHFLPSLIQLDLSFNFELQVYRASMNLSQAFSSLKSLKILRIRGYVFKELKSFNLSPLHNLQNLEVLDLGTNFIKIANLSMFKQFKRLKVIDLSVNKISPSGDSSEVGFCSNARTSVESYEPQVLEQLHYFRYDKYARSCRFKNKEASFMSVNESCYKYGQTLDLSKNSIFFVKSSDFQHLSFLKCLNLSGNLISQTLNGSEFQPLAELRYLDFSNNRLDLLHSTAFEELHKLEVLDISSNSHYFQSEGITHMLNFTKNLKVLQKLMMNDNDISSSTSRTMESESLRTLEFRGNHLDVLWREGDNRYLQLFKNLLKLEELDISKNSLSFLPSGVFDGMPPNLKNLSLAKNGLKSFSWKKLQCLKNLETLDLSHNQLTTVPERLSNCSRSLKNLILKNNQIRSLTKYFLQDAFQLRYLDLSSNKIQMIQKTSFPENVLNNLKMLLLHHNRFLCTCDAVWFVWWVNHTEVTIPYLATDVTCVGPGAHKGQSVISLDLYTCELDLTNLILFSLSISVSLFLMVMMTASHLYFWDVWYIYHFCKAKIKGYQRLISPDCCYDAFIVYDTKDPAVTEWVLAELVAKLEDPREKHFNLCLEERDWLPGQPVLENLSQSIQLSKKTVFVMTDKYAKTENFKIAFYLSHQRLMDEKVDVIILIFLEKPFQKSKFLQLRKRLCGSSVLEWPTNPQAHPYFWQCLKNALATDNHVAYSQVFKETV
# Assay: Human TLR7 agonist activity assay (HEK-Blue TLR7 SEAP reporter)
# Measurement parameters: HEK-Blue TLR7 cells, 18 h treatment, average where assay performed multiple times, read-out: hTLR7 Agonism EC50
# Method: This procedure describes a method for assaying human TLR7 (hTLR7) agonist activity of the compounds disclosed in this specification. HEK-Blue™ TLR7 cells were added to each well of a 384-well tissue-culture plate (15,000 cells per well) and incubated 16-18 h at 37° C., 5% CO2. […] After 18 h treatment ten microliters of freshly-prepared Quanti-Blue™ reagent (Invivogen) was added to each well, incubated for 30 min (37° C., 5% CO2) and SEAP levels measured using an Envision plate reader (OD=620 nm). […]
Property label: EC50 (nM)

1: COc1cc(C2CCNCC2)cnc1Cn1ncc2nc(N)nc(NCc3cc(C)on3)c21
2: CCC[C@@H](CCO)Nc1nc(N)nc2cnn(Cc3ncc(N4CCN(CC(C)(C)O)CC4)cc3OC)c12
3: CCCCNc1nc(N)nc2c(Cl)nn(Cc3ncc(C4CCN(C5CCOCC5)CC4)cc3OC)c12
4: CCC[C@@H](CCO)Nc1nc(N)nc2cnn(Cc3cnc(C4CCNCC4)cc3OC)c12
Prompt: Please sort the molecules listed above from highest to lowest EC50. Please write the labels in the order that was asked for.
Response: 3, 1, 4, 2
(3: 869 nM, 1: 357 nM, 4: 45.5 nM, 2: 19.9 nM)

A: CCCCNc1nc(N)nc2c(Cl)nn(Cc3ncc(C4CCN(C5CCCC5)CC4)cc3OC)c12
B: CCCCNc1nc(N)nc2cnn(Cc3ncc(C4CCN(CCO)CC4)cc3OC)c12
C: CCCCNc1nc(N)nc2cnn(Cc3ncc(C4CCN(C5CCS(=O)(=O)CC5)CC4)cc3OC)c12
Prompt: Exam item: list the entries in increasing order of EC50. # respond with the labels, arranged in the requested order
Response: B, C, A
